The reader will find reported bioavailability values listed item by item below.
experimental-protocol: % bioavailability in rat after oral dose (10 mg/kg) 0 - 6 h.
Type: ADME, organism-based
recorded-conditions: in vivo
value-type: bioavailability (%)

* CC(C)[C@H](NS(=O)(=O)N(C)Cc1ccccn1)C(=O)N[C@@H](Cc1ccccc1)C(O)[C@H](Cc1ccccc1)NC(=O)[C@H](NS(=O)(=O)N(C)Cc1ccccn1)C(C)C (stereo partly drawn) | 21
* CC(C)[C@H](NS(=O)(=O)N(C)Cc1ccccn1)C(=O)N[C@@H](Cc1ccccc1)[C@H](O)[C@H](O)[C@H](Cc1ccccc1)NC(=O)[C@H](NS(=O)(=O)N(C)Cc1ccccn1)C(C)C | 11
* CC(C)[C@H](NC(=O)N1CCN(C)CC1)C(=O)N[C@@H](Cc1ccccc1)[C@@H](O)[C@H](Cc1ccccc1)NC(=O)[C@H](NC(=O)OCc1ccccc1)C(C)C | 13
* CC(C)[C@H](NC(=O)OCc1cccnc1)C(=O)N[C@@H](Cc1ccccc1)C(O)[C@H](Cc1ccccc1)NC(=O)[C@H](NC(=O)OCc1cccnc1)C(C)C (stereo partly drawn) | 2.1
* CC(C)[C@H](NC(=O)N(C)Cc1cccnc1)C(=O)N[C@@H](Cc1ccccc1)[C@H](O)[C@H](O)[C@H](Cc1ccccc1)NC(=O)[C@H](NC(=O)N(C)Cc1cccnc1)C(C)C | 17
* CC(C)[C@H](NC(=O)OCc1ccccn1)C(=O)N[C@@H](Cc1ccccc1)C(O)[C@H](Cc1ccccc1)NC(=O)[C@H](NC(=O)OCc1ccccn1)C(C)C (stereo partly drawn) | 19
* CC(C)[C@H](NC(=O)OCc1ccncc1)C(=O)N[C@@H](Cc1ccccc1)C(O)[C@H](Cc1ccccc1)NC(=O)[C@H](NC(=O)OCc1ccncc1)C(C)C (stereo partly drawn) | 0.9
* CC(C)[C@H](NC(=O)N(C)Cc1ccccn1)C(=O)N[C@@H](Cc1ccccc1)C(O)[C@H](Cc1ccccc1)NC(=O)[C@H](NC(=O)N(C)Cc1ccccn1)C(C)C (stereo partly drawn) | 11

----------
experimental-protocol: Estimated solubility (buffer pH 7.4)
Format: ADME
recorded-conditions: read-out: S
value-type: solubility (µg/mL)

• CC(C)[C@H](NC(=O)OCC1CCCN(C)C1)C(=O)N[C@@H](Cc1ccccc1)[C@@H](O)[C@H](Cc1ccccc1)NC(=O)[C@H](NC(=O)OCc1ccccc1)C(C)C (stereo partly specified) = 31
• CC(C)[C@H](NC(=O)OCC1CCCCN1C)C(=O)N[C@@H](Cc1ccccc1)[C@@H](O)[C@H](Cc1ccccc1)NC(=O)[C@H](NC(=O)OCc1ccccc1)C(C)C (stereo partly specified) = 19
• CC(C)[C@H](NC(=O)OCc1cccnc1)C(=O)N[C@@H](Cc1ccccc1)[C@H](O)[C@H](O)[C@H](Cc1ccccc1)NC(=O)[C@H](NC(=O)OCc1cccnc1)C(C)C = 0.41
• CC(C)[C@H](NC(=O)N(C)Cc1cccnc1)C(=O)N[C@@H](Cc1ccccc1)[C@@H](O)[C@H](O)[C@H](Cc1ccccc1)NC(=O)[C@H](NC(=O)N(C)Cc1cccnc1)C(C)C = 153
• CC(C)[C@H](NC(=O)OCCN1CCOCC1)C(=O)N[C@@H](Cc1ccccc1)[C@@H](O)[C@@H](O)[C@H](Cc1ccccc1)NC(=O)[C@H](NC(=O)OCCN1CCOCC1)C(C)C = 132
• CC(C)[C@H](NS(=O)(=O)N(C)Cc1ccccn1)C(=O)N[C@@H](Cc1ccccc1)[C@@H](O)[C@H](O)[C@H](Cc1ccccc1)NC(=O)[C@H](NS(=O)(=O)N(C)Cc1ccccn1)C(C)C = 30
• CC(C)[C@H](NC(=O)OCc1ccncc1)C(=O)N[C@@H](Cc1ccccc1)[C@@H](O)[C@@H](O)[C@H](Cc1ccccc1)NC(=O)[C@H](NC(=O)OCc1ccncc1)C(C)C = 55
• CC(C)[C@H](NS(=O)(=O)CCc1ccncc1)C(=O)N[C@@H](Cc1ccccc1)[C@H](O)[C@H](O)[C@H](Cc1ccccc1)NC(=O)[C@H](NS(=O)(=O)CCc1ccncc1)C(C)C = 55
• CC(C)[C@H](NC(=O)N(C)Cc1ccccn1)C(=O)N[C@@H](Cc1ccccc1)[C@H](O)[C@@H](O)[C@H](Cc1ccccc1)NC(=O)[C@H](NC(=O)N(C)Cc1cscn1)C(C)C = 1
• CC(C)[C@H](NC(=O)N(C)Cc1ccccn1)C(=O)N[C@@H](Cc1ccccc1)[C@H](O)[C@@H](O)[C@H](Cc1ccccc1)NC(=O)[C@H](NC(=O)N(C)Cc1cccnc1)C(C)C = 420
• CC(C)[C@H](NC(=O)OCCN1CCCC1)C(=O)N[C@@H](Cc1ccccc1)[C@@H](O)[C@H](Cc1ccccc1)NC(=O)[C@H](NC(=O)OCc1ccccc1)C(C)C = 19
• CC(C)[C@H](NC(=O)c1ccc2ccccc2n1)C(=O)N[C@@H](Cc1ccccc1)C(O)[C@H](Cc1ccccc1)NC(=O)[C@H](NC(=O)c1ccc2ccccc2n1)C(C)C (stereo partly specified) = 0.23
• CC(C)[C@H](NC(=O)OCc1cccnc1)C(=O)N[C@@H](Cc1ccccc1)[C@@H](O)[C@@H](O)[C@H](Cc1ccccc1)NC(=O)[C@H](NC(=O)OCc1cccnc1)C(C)C = 31
• CC(C)[C@H](NC(=O)N(C)CCc1ccccn1)C(=O)N[C@@H](Cc1ccccc1)[C@@H](O)[C@H](O)[C@H](Cc1ccccc1)NC(=O)[C@H](NC(=O)N(C)CCc1ccccn1)C(C)C = 66
• CC(C)[C@H](NC(=O)OCc1cccnc1)C(=O)N[C@@H](Cc1ccccc1)[C@@H](O)[C@H](O)[C@H](Cc1ccccc1)NC(=O)[C@H](NC(=O)OCc1cccnc1)C(C)C = 0.5
• CC(C)[C@H](NC(=O)N(C)Cc1cscn1)C(=O)N[C@@H](Cc1ccccc1)[C@H](O)[C@H](O)[C@H](Cc1ccccc1)NC(=O)[C@H](NC(=O)N(C)Cc1cscn1)C(C)C = 6.5
• CC(C)[C@H](NC(=O)OCc1ccncc1)C(=O)N[C@@H](Cc1ccccc1)[C@H](O)[C@H](O)[C@H](Cc1ccccc1)NC(=O)[C@H](NC(=O)OCc1ccncc1)C(C)C = 0.62
• CC(C)[C@H](NC(=O)N(C)Cc1nccs1)C(=O)N[C@@H](Cc1ccccc1)[C@@H](O)[C@@H](O)[C@H](Cc1ccccc1)NC(=O)[C@H](NC(=O)N(C)Cc1nccs1)C(C)C = 137
• CC(C)[C@H](NC(=O)OCc1ccccn1)C(=O)N[C@@H](Cc1ccccc1)[C@@H](O)[C@H](O)[C@H](Cc1ccccc1)NC(=O)[C@H](NC(=O)OCc1ccccn1)C(C)C = 2.4
• CC(C)[C@H](NC(=O)OCc1ccncc1)C(=O)N[C@@H](Cc1ccccc1)C(O)[C@H](Cc1ccccc1)NC(=O)[C@H](NC(=O)OCc1ccncc1)C(C)C (stereo partly specified) = 7.8
• CC(C)[C@H](NC(=O)OCCN1CCOCC1)C(=O)N[C@@H](Cc1ccccc1)C(O)[C@H](Cc1ccccc1)NC(=O)[C@H](NC(=O)OCCN1CCOCC1)C(C)C (stereo partly specified) = 273
